system: T-cell; assay: CD25 cell surface staining on T-cells stimulated with anti-CD3 antibody alone (Biological Example 2); assay type: cell-based; conditions: 1 μM compound, primary human total T-cells, baseline = anti-CD3/anti-CD28 stimulated cells without inhibitor, read-out: CD25 staining, Anti-CD3 stimulation, fold change over baseline
fold induction at 1 µM reference

Examples with answers:
Compound: Cn1cnnc1CC1(c2cccc(N3Cc4c(cc(C(F)(F)C(=O)O)cc4C(F)(F)F)C3=O)c2)COC1 [Example 544]
Observed property: fold induction at 1 µM
Value: 0.601 to 0.8
--
Compound: Cc1c[nH]nc1C[C@@H](C)c1cccc(N2Cc3c(cc(C(=O)N4CCC(O)C4)cc3C(F)(F)F)C2=O)c1 (stereo in doubt) [Compound 463]
Observed property: fold induction at 1 µM
Value: 0.801 to 1
--
Compound: Cn1cnnc1CC1(c2cccc(NC(=O)c3cc(CN4C[C@H]5C[C@H]5C4)cc(C4CC4)n3)c2)COC1 [Compound 498]
Observed property: fold induction at 1 µM
Value: > 1
--
Compound: Cc1conc1CC1(c2cccc(NC(=O)c3cc(CN4CCC5(CC5)C4)nc(C4CC4)n3)c2)COC1 [Compound 508]
Observed property: fold induction at 1 µM
Value: > 1
--
Compound: Cn1cnnc1CC1(c2cccc(N3Cc4c(cc(CN5CC6(CC6)C5)cc4C(F)(F)F)C3=O)c2)COC1 [Compound 487]
Observed property: fold induction at 1 µM
Value: > 1

stdin: Entry under review: C[C@@H]1CN(C)CCN1c1cc2c(c(C(F)(F)F)c1)CN(c1cccc(C3(Cc4nncn4C)COC3)c1)C2=O [Compound 390] . Reported fold induction at 1 µM?
stdout: > 1

stdin: Looking for the measured fold induction at 1 µM of C[C@@H](c1cc2c(c(C(F)(F)F)c1)CN(c1cccc(C3(Cc4nncn4C)COC3)c1)C2=O)N1C[C@H]2C[C@H]2C1 [Compound 541a] , can you help?
stdout: > 1

stdin: Request the reported fold induction at 1 µM associated with CC(c1cc2c(c(C(F)(F)F)c1)CN(c1cccc([C@H]3C[C@H]3c3nncn3C)c1)C2=O)N1CC[C@H](F)C1 (stereo partly shown) [Compound 466]
stdout: > 1

stdin: Quick one: fold induction at 1 µM for Cn1cnnc1[C@@H](F)[C@](C)(F)c1cccc(N2Cc3c(cc(C4CC4)cc3C(F)(F)F)C2=O)c1 (stereo in doubt) [Compound 482] ?
stdout: 0.601 to 0.8

stdin: If you can, please state the reported fold induction at 1 µM value of C[C@@H](c1cc2c(c(C(F)(F)F)c1)CN(c1cccc(C3(Cc4nncn4C)COC3)c1)C2=O)N1CCC(F)(F)C1 [Compound 420] .
stdout: > 1

stdin: Endpoint output: fold induction at 1 µM of Cn1cnnc1CC1(c2cccc(N3Cc4c(cc(CN5CCCC56COC6)cc4C(F)(F)F)C3=O)c2)COC1 [Compound 433] . Value?
stdout: 0.801 to 1

stdin: Given the entry Cn1cnnc1CC1(c2cccc(N3Cc4c(cc(CN5CC[C@@H]6C[C@@H]65)cc4C(F)(F)F)C3=O)c2)COC1 (single isomer, unassigned) [Compound 486b] , report its measured fold induction at 1 µM.
stdout: > 1

stdin: Dear colleague, I am looking for the recorded fold induction at 1 µM of the following compound: C[C@H](Cc1nncn1C)c1cccc(N2Cc3c(cc(CN4CC(F)C4)cc3C(F)(F)F)C2=O)c1 [Compound 401]
stdout: > 1

###

system: T-cell; assay: CD25 cell surface staining on T-cells co-stimulated with anti-CD3 and anti-CD28 antibody (Biological Example 2); assay type: cell-based, human; conditions: Homo sapiens, T-cell, fold change over baseline; 0.3 μM Cbl-b inhibitor; primary human total T-cells; read-out: CD25 staining Anti-CD3/Anti-CD28 stimulation
Observed property: fold induction at 0.3 µM

Below, each entry is followed by its recorded fold induction at 0.3 µM result.
Molecule: Cc1cc(C(=O)Nc2cccc(C3(Cc4nncn4C)COC3)c2)nc(C2CC2)c1
Test target: T-cell
Observed property: fold induction at 0.3 µM
Value: 1.31 to 1.5
--
Molecule: Cn1cnnc1CC1(c2cccc(NC(=O)c3[nH]nc4c3OCCC4)c2)COC1
Test target: T-cell
Observed property: fold induction at 0.3 µM
Value: 1.01 to 1.3
--
Molecule: C[C@H](Sc1nncn1C)c1cccc(N2Cc3c(cccc3C(F)(F)F)C2=O)c1 [Compound 166a]
Test target: T-cell
Observed property: fold induction at 0.3 µM
Value: < 1
--
Molecule: C[C@H](Cc1nncn1C)c1cccc(NC(=O)c2ccnc(C3CC3)n2)c1
Test target: T-cell
Observed property: fold induction at 0.3 µM
Value: 1.01 to 1.3
--
Molecule: Cc1cc(C(=O)Nc2cccc([C@H](C)Sc3nncn3C)c2)nc(C(F)(F)F)c1
Test target: T-cell
Observed property: fold induction at 0.3 µM
Value: 1.01 to 1.3

stdin: Give its fold induction at 0.3 µM value. Item: CC(Sc1nncn1C)c1cc(F)cc(N2Cc3c(cccc3C(F)(F)F)C2=O)c1 (stereo not drawn)
stdout: < 1

stdin: Using the record for Cc1cc(C(=O)Nc2cccc([C@@H](C)Cc3nncn3C)c2)nc(C2CC2)n1 , report its fold induction at 0.3 µM.
stdout: 1.01 to 1.3

stdin: So what does the record say about fold induction at 0.3 µM for Cc1cc(C(=O)Nc2cccc([C@H](C)Cc3nncs3)c2)nc(C2CC2)n1 ?
stdout: 1.01 to 1.3

stdin: Look up fold induction at 0.3 µM: Cn1cnnc1[C@@H]1C[C@@H]1c1cccc(NC(=O)c2nc3c(C(F)(F)F)cccc3[nH]2)c1
stdout: 1.01 to 1.3

###

In this section, each of the compounds is paired with its reported IC50.
target: Cbl-b (Homo sapiens); test: Cbl-b activity assay (Cbl-b inhibition assay), TR-FRET of Cbl-b interaction with UbcH5B-Ub; assay type: biochemical; details: assay buffer with 100 mM NaCl, 60 nM Src kinase; read-out: Cbl-b activity IC50
Sequence (Q13191 36-427): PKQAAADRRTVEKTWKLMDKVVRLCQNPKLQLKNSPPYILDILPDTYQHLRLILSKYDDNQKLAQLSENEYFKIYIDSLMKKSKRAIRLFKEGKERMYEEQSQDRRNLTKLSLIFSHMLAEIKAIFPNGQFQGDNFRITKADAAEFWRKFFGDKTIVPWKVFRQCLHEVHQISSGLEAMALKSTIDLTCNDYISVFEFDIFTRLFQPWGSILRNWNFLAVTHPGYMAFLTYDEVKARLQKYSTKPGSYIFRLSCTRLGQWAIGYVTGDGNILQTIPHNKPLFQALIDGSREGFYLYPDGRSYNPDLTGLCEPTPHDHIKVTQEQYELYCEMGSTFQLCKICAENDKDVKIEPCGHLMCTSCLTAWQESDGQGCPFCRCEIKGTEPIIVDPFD

Reference set, count: 3
Compound: Cn1cnnc1CC1(c2cccc(N3Cc4c(ccnc4C(F)(F)F)C3=O)c2)COC1
Test target: Cbl-b (Homo sapiens)
IC50: < 0.1 µM
//
Compound: C[C@H](Sc1nncn1C)c1cccc(NC(=O)c2cccc(CF)n2)c1
Test target: Cbl-b (Homo sapiens)
IC50: 1 to 3 µM
//
Compound: Cc1ccc(C(=O)Nc2cccc(C(C)Cc3nccn3C)c2)nc1C1CC1 (stereo not shown)
Test target: Cbl-b (Homo sapiens)
IC50: 1 to 3 µM

stdin: Can you share its IC50? I mean this compound: CN(c1cc2c(c(C(F)(F)F)c1)CN(c1cccc([C@@](C)(F)C(F)(F)c3nncn3C)c1)C2=O)[C@H]1CNC[C@@H]1F
stdout: < 0.1 µM

stdin: Give the measured IC50 of Cc1cc(C(=O)Nc2cccc([C@H](C)Sc3nncn3C)c2)[nH]c(=O)c1 .
stdout: 3 to 10 µM

stdin: Data request, read-out IC50, for CCOC(Cc1nncn1C)c1cccc(N2Cc3c(cccc3C(F)(F)F)C2=O)c1 (stereo not shown)
stdout: 3 to 10 µM

stdin: Requested field: IC50. Item: Cn1cnnc1CC1(c2cccc(N3Cc4c(cc(CN5CCC(C(F)F)CC5)cc4C(F)(F)F)C3=O)c2)COC1
stdout: < 0.1 µM

stdin: # IC50 lookup, item C[C@H](Sc1nncn1C)c1cccc(NC(=O)c2cc(C(=O)N3CCCC3)ccn2)c1
stdout: 3 to 10 µM

stdin: Recorded IC50 of COc1cc(C(=O)Nc2cccc(C3(Cc4nncn4C)COC3)c2)nc(C2CC2)n1 , please.
stdout: < 0.1 µM

stdin: Find the recorded IC50 belonging to CC(O)c1cc2c(c(C(F)(F)F)c1)CN(c1cccc([C@@](C)(F)C(F)(F)c3nncn3C)c1)C2=O (stereo partly shown) and report it.
stdout: < 0.1 µM

###

Consider compounds characterized by their pKd with Cbl-b (residues 36-427) (Homo sapiens, UniProt Q13191).
Sequence (Q13191 36-427): as above
pKd: −log10 of the molar value. Where a name gives a salt, the structure may show the parent alone.

Compound: COC1CN(Cc2cc3c(c(C(F)(F)F)c2)CN(c2cccc([C@@](C)(F)C(F)(F)c4nncn4C)c2)C3=O)C1 [Compound 452]
pKd: > 7.00
--
Compound: CNc1cc([C@H](C)Cc2nncn2C)cc(N2Cc3c(cccc3C(F)(F)F)C2=O)n1 [Compound 363]
pKd: > 7.00
--
Compound: Cc1cc(C(=O)Nc2cc([C@H](C)Sc3nncn3C)ccn2)nc(C(F)(F)F)c1 [Compound 103]
pKd: 5.52 to 6.00
--
Compound: CCc1cccc(C(=O)Nc2cc([C@H](C)Sc3nncn3C)ccn2)n1 [Compound 123]
pKd: 5.00 to 5.52
--
Compound: CC(Sc1nncn1C)c1cccc(NC(=O)c2ccc3c(n2)CCCC3)c1 (stereo not drawn) [Compound 23]
pKd: 5.00 to 5.52

stdin: Field: pKd (Cbl-b (residues 36-427) (Homo sapiens, UniProt Q13191)). Entry: C[C@H](Cc1ncn(C)n1)c1cccc(N2Cc3c(cccc3C(F)(F)F)C2=O)c1 [Compound 263]
stdout: 5.00 to 5.52

stdin: Hi! What's the reported pKd for C[C@@H](Cc1nncn1C)c1cccc(N2Cc3c(cccc3C(F)(F)F)C2=O)c1 [Compound 255b] on Cbl-b (residues 36-427) (Homo sapiens, UniProt Q13191)?
stdout: 5.00 to 5.52

stdin: Kindly state the measured pKd obtained for C[C@H](Cc1nncn1C)c1cccc(NC(=O)c2cc(C(=O)N3CC[C@H](O)C3)cc(C(F)(F)F)n2)c1 [Compound 220] with Cbl-b (residues 36-427) (Homo sapiens, UniProt Q13191).
stdout: > 7.00

stdin: Lab note: need pKd with Cbl-b (residues 36-427) (Homo sapiens, UniProt Q13191) for entry C[C@H](Sc1nncn1C)c1ccc(F)c(NC(=O)c2ccc3ccccc3n2)c1 [Compound 96a] , please look it up.
stdout: 5.52 to 6.00

stdin: Short answer please: pKd, Cbl-b (residues 36-427) (Homo sapiens, UniProt Q13191), entry C[C@H](Sc1nncn1C)c1cccc(NC(=O)c2cc3cc(OCC(=O)NCCN)ccc3cn2)c1 [Compound 311, hydrochloride]
stdout: 6.52 to 7.00
